Biological target: T1, GFP-9S library array, motif 4 ND N98T;D124W (synthetic construct, N98T;D124W)
T1 chain: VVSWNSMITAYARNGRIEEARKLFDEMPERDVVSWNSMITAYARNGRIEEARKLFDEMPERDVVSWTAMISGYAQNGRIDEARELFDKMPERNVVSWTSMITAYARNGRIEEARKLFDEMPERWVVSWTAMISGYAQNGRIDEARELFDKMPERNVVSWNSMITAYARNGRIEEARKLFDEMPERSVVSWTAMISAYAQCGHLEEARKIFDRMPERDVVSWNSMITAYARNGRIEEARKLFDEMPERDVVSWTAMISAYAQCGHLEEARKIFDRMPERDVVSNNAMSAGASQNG
Test: high-throughput RNA pulldown from lysate on Ni-NTA beads; HRP: 50 mM Tris pH 8, 150 mM NaCl, 1 mM beta-mercaptoethanol, 50 ug/ml BSA, 3 ug/ml yeast RNA, 0.5% heparin; ITC and FP: Tris pH 8, 200 mM KCl, 5% glycerol; MST: 50 mM Tris pH 8, 200 mM NaCl, 1 mM DTT, BSA, heparin, 0.05% Tween 20
Conditions: tags: N-terminal His-eGFP; label: 5' IRDye 800CW
OUTCOME_MEASURE: Kd (nM)
# unit: nM | format: bare number

## Input Endpoint output: Kd of AUUAAACGUGA (ssRNA) [IR-rpoA-A] . Value?
## Output 125

## Input Endpoint output: Kd of AUUAUACGUGA (ssRNA) [IR-rpoA-U] . Value?
## Output 150
